Values compiled from paper PMC12416549.

measurement target: T1, TNFR1 (Homo sapiens, UniProt P19438)
T1 chain: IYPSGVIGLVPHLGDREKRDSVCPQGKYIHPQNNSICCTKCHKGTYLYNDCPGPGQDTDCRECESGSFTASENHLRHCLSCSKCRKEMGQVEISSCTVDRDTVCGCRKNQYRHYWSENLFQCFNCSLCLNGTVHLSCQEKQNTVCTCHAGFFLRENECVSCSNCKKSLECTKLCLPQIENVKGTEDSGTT
assay overview: yeast display SC50
endpoint: apparent Kd (screen)

Please review the following examples before continuing.
| binder | result |
| --- | --- |
| E92D (designed binder) SMEEEVEKAAKEYEKKKKEAIEKHLEKLKAKDKEAAERFLKELEEAAKEYAKDEAKTMSEEEAKRRAKKYKEKVLLSELSEEEQKEIKEAEDKLVRTILKYVEEAAK | 0.446 nM |
| E49C (designed binder) SMEEEVEKAAKEYEKKKKEAIEKHLEKLKAKDKEAAERFLKELEEAAKCYAKDEAKTMSEEEAKRRAKKYKEKVLLSELSEEEQKEIKEAEEKLVRTILKYVEEAAK | 13.8 nM |
| A67L (designed binder) SMEEEVEKAAKEYEKKKKEAIEKHLEKLKAKDKEAAERFLKELEEAAKEYAKDEAKTMSEEEAKRRLKKYKEKVLLSELSEEEQKEIKEAEEKLVRTILKYVEEAAK | 7.78 nM |
| E104G (designed binder) SMEEEVEKAAKEYEKKKKEAIEKHLEKLKAKDKEAAERFLKELEEAAKEYAKDEAKTMSEEEAKRRAKKYKEKVLLSELSEEEQKEIKEAEEKLVRTILKYVEGAAK | 0.446 nM |

Report apparent Kd (screen) for every entry below.
1. K23F (designed binder) SMEEEVEKAAKEYEKKKKEAIEFHLEKLKAKDKEAAERFLKELEEAAKEYAKDEAKTMSEEEAKRRAKKYKEKVLLSELSEEEQKEIKEAEEKLVRTILKYVEEAAK
2. V6G (designed binder) SMEEEGEKAAKEYEKKKKEAIEKHLEKLKAKDKEAAERFLKELEEAAKEYAKDEAKTMSEEEAKRRAKKYKEKVLLSELSEEEQKEIKEAEEKLVRTILKYVEEAAK
3. E34Y (designed binder) SMEEEVEKAAKEYEKKKKEAIEKHLEKLKAKDKYAAERFLKELEEAAKEYAKDEAKTMSEEEAKRRAKKYKEKVLLSELSEEEQKEIKEAEEKLVRTILKYVEEAAK
4. S59P (designed binder) SMEEEVEKAAKEYEKKKKEAIEKHLEKLKAKDKEAAERFLKELEEAAKEYAKDEAKTMPEEEAKRRAKKYKEKVLLSELSEEEQKEIKEAEEKLVRTILKYVEEAAK

[reply]
1: 0.79 nM; 2: 2.48 nM; 3: 0.539 nM; 4: 0.446 nM
